# target: ABCB1 (Homo sapiens, UniProt P08183)
# Sequence (P08183 whole entry): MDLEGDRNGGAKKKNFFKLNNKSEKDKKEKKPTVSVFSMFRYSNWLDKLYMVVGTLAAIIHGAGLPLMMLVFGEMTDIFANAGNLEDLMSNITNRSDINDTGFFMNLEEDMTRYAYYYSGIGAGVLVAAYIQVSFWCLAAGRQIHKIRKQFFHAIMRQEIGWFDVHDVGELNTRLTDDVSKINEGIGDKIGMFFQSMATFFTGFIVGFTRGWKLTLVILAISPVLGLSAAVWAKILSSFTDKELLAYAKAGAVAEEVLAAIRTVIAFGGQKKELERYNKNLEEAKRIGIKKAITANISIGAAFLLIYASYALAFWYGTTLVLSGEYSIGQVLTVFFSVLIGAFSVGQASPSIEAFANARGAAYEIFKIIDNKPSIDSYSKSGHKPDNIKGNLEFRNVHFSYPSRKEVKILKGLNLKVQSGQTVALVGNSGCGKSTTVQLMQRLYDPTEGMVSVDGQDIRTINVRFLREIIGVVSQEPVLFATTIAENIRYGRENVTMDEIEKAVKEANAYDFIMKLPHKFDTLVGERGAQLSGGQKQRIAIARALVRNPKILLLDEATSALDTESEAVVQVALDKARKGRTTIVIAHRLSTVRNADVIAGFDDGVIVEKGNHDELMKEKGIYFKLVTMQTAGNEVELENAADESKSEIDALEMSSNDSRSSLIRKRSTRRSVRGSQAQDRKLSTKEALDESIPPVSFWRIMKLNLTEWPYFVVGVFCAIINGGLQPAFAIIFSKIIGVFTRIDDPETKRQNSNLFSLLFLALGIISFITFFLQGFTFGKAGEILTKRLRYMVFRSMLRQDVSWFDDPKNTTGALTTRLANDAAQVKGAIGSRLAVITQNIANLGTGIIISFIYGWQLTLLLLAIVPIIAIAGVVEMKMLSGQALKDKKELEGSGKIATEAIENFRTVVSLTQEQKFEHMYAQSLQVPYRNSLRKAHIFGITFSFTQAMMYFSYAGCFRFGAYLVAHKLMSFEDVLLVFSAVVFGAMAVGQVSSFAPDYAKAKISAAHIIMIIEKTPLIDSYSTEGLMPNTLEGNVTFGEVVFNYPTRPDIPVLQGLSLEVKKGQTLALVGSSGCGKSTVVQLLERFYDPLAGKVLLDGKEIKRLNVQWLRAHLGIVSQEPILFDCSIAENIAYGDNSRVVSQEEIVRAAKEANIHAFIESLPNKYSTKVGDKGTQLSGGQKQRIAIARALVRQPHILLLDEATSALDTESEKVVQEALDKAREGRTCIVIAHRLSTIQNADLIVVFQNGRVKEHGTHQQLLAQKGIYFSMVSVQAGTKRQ
# runDescription: Inhibitory accumulation assay in MDCKII-ABCB1 cells
# Type: cell-based
# experimentalParameters: 8 µM hoechst 33342, read-out: IC50, relative Hoechst 33342 accumulation
quantity: pIC50
The scale used: pIC50 is minus the common logarithm of the concentration in molar units.

Ask: Enter recorded pIC50 with ABCB1 (Homo sapiens, UniProt P08183) for `CN1CCC(COc2cnc(-c3cccc(Cn4nc(-c5cccc(C#N)c5)ccc4=O)c3)nc2)CC1` here.
Reply: 5.50

* * *

# target: CYP2C19 (Homo sapiens)
# Sequence (P33261 whole entry): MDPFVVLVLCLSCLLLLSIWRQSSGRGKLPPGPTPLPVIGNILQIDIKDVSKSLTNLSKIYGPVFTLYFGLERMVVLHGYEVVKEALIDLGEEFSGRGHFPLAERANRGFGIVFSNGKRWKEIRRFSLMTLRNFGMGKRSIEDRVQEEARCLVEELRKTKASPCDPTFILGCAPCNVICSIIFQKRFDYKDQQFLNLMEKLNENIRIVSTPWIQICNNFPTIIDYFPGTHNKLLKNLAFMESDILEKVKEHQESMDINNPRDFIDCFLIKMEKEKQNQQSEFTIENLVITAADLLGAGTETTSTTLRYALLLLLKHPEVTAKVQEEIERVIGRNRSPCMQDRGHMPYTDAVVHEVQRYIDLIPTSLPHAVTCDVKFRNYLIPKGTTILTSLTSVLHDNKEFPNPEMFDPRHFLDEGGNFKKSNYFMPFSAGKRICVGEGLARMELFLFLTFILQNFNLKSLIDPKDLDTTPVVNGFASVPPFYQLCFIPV
# runDescription: Vivid CYP450 Screening Kit, recombinant CYP2C19
# experimentalParameters: recombinant enzyme; read-out: CYP2C19 inhibition IC50
quantity: IC50 (µM)
Write down the numeric answer in µM and omit the unit.

Ask: Dear colleague, please send me the reported IC50 for `CN1CCC(COc2cnc(-c3cccc(Cn4nc(-c5cccc(C#N)c5)ccc4=O)c3)nc2)CC1` when you can.
Reply: 16.9
